Target: human Brd4 BD2 (Homo sapiens, UniProt O60885)
Construct: GST‐tagged BD2 (residues 349–460) from human Brd4 (UniProt ID O60885); purchased Reaction Biology Corp
Assay: HTRF assay, inhibition of H4ac4 peptide binding
Details: Table S3; estimate, preliminary single-replicate HTRF assay; read-out: IC50 Brd4 BD2

| smiles | IC50 |
| --- | --- |
| COc1ccc(CNc2nc(-c3ccccc3)nnc2C)cc1 | > 20 µM |

---

Tested on: CgBdf1 BD1
Assay: Histone peptide array assay
Conditions: peptide array signal; CgBdf1 BD1 WT; mean of the two raw values

| compound | Normalized (0 to 100%), WT |
| --- | --- |
| Cc1ccc(-c2nnc(C)c(Cl)n2)cc1 [Compound 68] | 2.19 |
| Cn1nccc1C(=O)NCc1ccc(-c2nc(-c3cccs3)no2)s1 [Compound 63] | 1.81 |
| CCOC(=N)c1ccc(C)cc1 [Compound 65] | 1.47 |
| Cc1ccc(-c2nc(=O)c(C)n[nH]2)cc1 [Compound 67] | 16 |
| Cc1ccc(C(=N)NN)cc1 [Compound 66] | 2.32 |

---

Biological target: CgBdf1 BD2 (Candida glabrata)
Sequence (Q6FWV7 entry or part of it): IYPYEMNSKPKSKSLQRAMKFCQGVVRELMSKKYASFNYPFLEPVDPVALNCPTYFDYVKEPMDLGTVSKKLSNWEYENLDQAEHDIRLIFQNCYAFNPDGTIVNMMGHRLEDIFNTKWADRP
Assay: biochemical
Format: binding, C. glabrata
Settings: Fig 2C original data, analogs of 24; single experiments Exp1-3; read-out: pIC50 CgBD2 (converted)
# IC50 per record follows
measure: IC50

| compound | measured_on | result |
| --- | --- | --- |
| COC(=O)c1cccc(CNc2nc(-c3ccc(C)cc3)nnc2C)c1 [Compound 24l] | CgBdf1 BD2 (Candida glabrata) | > 100 µM |
| COc1ccc(CNc2nc(-c3ccccc3)nnc2C)cc1 [Compound 10] | CgBdf1 BD2 (Candida glabrata) | > 100 µM |
| Cc1ccc(-c2nnc(C)c(NCc3ccccc3)n2)cc1 [Compound 24m] | CgBdf1 BD2 (Candida glabrata) | > 20 µM |
| COc1cccc(CNc2nc(-c3ccc(C)cc3)nnc2C)c1 [Compound 24f] | CgBdf1 BD2 (Candida glabrata) | > 100 µM |
| COC(=O)c1ccc(CNc2nc(-c3ccc(C)cc3)nnc2C)cc1 [Compound 24k] | CgBdf1 BD2 (Candida glabrata) | > 100 µM |

---

System: C. glabrata strains expressing WT and mutant Bdf1
Test: Growth inhibition in liquid media, C. glabrata lab strains
Details: Nakaseomyces glabratus, read-out: EC50 (μM) growth inhibition, strain bdf1-bd1Δ (active BD: BD2)

| compound | EC50 [µM] |
| --- | --- |
| CC(=O)N1c2ccc(-c3ccc(C(=O)O)cc3)cc2C(Nc2ccc(Cl)cc2)CC1C (centres unmarked) | 1.17 |

---

Biological target: C. auris Bdf1 BD1 (Candidozyma auris (Candida auris), UniProt A0AAW0VEM6)
Sequence (A0AAW0VEM6 entry or part of it): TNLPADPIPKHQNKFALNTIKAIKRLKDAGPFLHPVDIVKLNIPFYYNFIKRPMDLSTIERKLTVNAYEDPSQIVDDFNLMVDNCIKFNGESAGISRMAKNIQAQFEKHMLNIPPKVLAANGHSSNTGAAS
Experiment: HTRF assay, inhibition of H4ac4 peptide binding
Settings: Fig 5A; four replicates; read-out: IC50 (μM) BD1, C. aur. Bdf1

| compound | measured_on | IC50 [µM] |
| --- | --- | --- |
| CC(=O)N1c2ccc(-c3ccc(C(=O)O)cc3)cc2C(Nc2ccc(Cl)cc2)CC1C (stereo not shown) | C. auris Bdf1 BD1 (Candidozyma auris (Candida auris), UniProt A0AAW0VEM6) | 14.7 |

---

Target: CaBdf1 BD2 (Candida albicans, UniProt Q5A4W8)
Construct: BD1 (residues 193–327) and BD2 (residues 361–501) from CaBdf1 (Uniprot ID Q5A4W8); made in house; host or cells: E. coli BL21(DE3)
Sequence (Q5A4W8 361-501): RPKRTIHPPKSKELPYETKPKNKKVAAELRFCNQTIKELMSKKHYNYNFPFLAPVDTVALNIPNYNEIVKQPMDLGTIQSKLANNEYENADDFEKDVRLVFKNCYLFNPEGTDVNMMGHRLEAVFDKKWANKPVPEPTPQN
Test: HTRF assay, inhibition of H4ac4 peptide binding
Set-up: species or system C. albicans
Settings: Fig 5A; four replicates; read-out: IC50 (μM) BD2, C. alb. Bdf1

| molecule | measured_on | scale_unit | IC50 |
| --- | --- | --- | --- |
| CC(=O)N1c2ccc(-c3ccc(C(=O)O)cc3)cc2C(Nc2ccc(Cl)cc2)CC1C (stereo not shown) [I-BET726] | CaBdf1 BD2 (Candida albicans, UniProt Q5A4W8) | µM | 0.63 |

This collection of values is drawn from paper PMC11904993.
